Assay: self-splicing fitness, log relative to wild type (ln ratio); higher = more splicing; Tetrahymena group I intron in knt gene, E. coli kanamycin selection, DiMSum; sequences stand for … in CUCUCU…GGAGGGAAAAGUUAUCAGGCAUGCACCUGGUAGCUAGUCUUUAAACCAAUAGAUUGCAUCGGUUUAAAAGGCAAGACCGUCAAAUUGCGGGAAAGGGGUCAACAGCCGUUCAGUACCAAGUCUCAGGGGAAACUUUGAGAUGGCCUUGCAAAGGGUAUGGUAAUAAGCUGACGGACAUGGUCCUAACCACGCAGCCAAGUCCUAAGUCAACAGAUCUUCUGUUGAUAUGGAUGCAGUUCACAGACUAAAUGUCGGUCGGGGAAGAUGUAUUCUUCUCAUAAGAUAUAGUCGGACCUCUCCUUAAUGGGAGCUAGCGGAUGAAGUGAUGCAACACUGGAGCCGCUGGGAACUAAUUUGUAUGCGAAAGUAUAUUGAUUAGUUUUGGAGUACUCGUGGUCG;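 note: selection with 25 µg/mL kanamycin versus none on LB agar overnight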
Settings: 30 °C
Each record gets a class by self-splicing fitness (ln): low-valued = under -3, mid-valued = from -3 up to -2, high-valued = -2 and over

INSERT INTO assay_data (polymersequence, classification) VALUES
  ('UAGUAGCAAUAUUACGCCAG', 'mid-valued'),
  ('ACCAAGCAAUAUUACGUGUA', 'mid-valued'),
  ('UUGGAGCAAUAUUACGGGAG', 'low-valued'),
  ('GAACAGCAAUAUUACGUAAU', 'high-valued'),
  ('CACAAGCAAUAUUACGGUGC', 'low-valued'),
  ('UAAAAGCAAUAUUACGCCCU', 'high-valued'),
  ('GGGCAGCAAUAUUACGACCA', 'high-valued'),
  ('UUACAGCAAUAUUACGCGCA', 'high-valued'),
  ('AGUCAGCAAUAUUACGCUCC', 'high-valued'),
  ('UGGUAGCAAUAUUACGAACG', 'high-valued'),
  ('CUGAAGCAAUAUUACGCUUC', 'low-valued'),
  ('AACUAGCAAUAUUACGGCAG', 'high-valued'),
  ('CCAUAGCAAUAUUACGAGUU', 'low-valued'),
  ('AGAUAGCAAUAUUACGCACU', 'high-valued'),
  ('GUUCAGCAAUAUUACGAUGU', 'high-valued'),
  ('GCAAAGCAAUAUUACGUUCC', 'high-valued'),
  ('CACAAGCAAUAUUACGAUAG', 'high-valued'),
  ('GGAAAGCAAUAUUACGCCGU', 'high-valued'),
  ('CGAAAGCAAUAUUACGUGCC', 'low-valued'),
  ('UAUGAGCAAUAUUACGGGUG', 'mid-valued'),
  ('UGGGAGCAAUAUUACGACUU', 'mid-valued'),
  ('CCCUAGCAAUAUUACGCGGA', 'high-valued'),
  ('CUGGAGCAAUAUUACGACGA', 'high-valued'),
  ('CGGUAGCAAUAUUACGACAU', 'mid-valued'),
  ('CUAAAGCAAUAUUACGAUGG', 'high-valued'),
  ('UUAUAGCAAUAUUACGUGAC', 'low-valued'),
  ('AGAGAGCAAUAUUACGUGUG', 'low-valued'),
  ('UAAGAGCAAUAUUACGGAUG', 'mid-valued'),
  ('CGACAGCAAUAUUACGAAUC', 'low-valued'),
  ('UUCCAGCAAUAUUACGUGCA', 'high-valued'),
  ('AUUGAGCAAUAUUACGAUAG', 'low-valued'),
  ('UACCAGCAAUAUUACGCGGU', 'low-valued'),
  ('CAAGAGCAAUAUUACGCCCG', 'high-valued'),
  ('ACACAGCAAUAUUACGGGCC', 'low-valued'),
  ('UGUUAGCAAUAUUACGCUGG', 'low-valued'),
  ('AGGGAGCAAUAUUACGUGGG', 'low-valued'),
  ('AGACAGCAAUAUUACGGAAG', 'low-valued'),
  ('UCCCAGCAAUAUUACGCCGU', 'low-valued'),
  ('AUCCAGCAAUAUUACGGUGC', 'high-valued'),
  ('ACCCAGCAAUAUUACGCGAC', 'mid-valued'),
  ('GUUAAGCAAUAUUACGCAGA', 'mid-valued'),
  ('UUUCAGCAAUAUUACGUAUC', 'high-valued'),
  ('GGAUAGCAAUAUUACGUCGA', 'high-valued'),
  ('GUUUAGCAAUAUUACGGGUC', 'low-valued'),
  ('CUCGAGCAAUAUUACGGUGU', 'mid-valued'),
  ('CGCUAGCAAUAUUACGUGGG', 'low-valued'),
  ('GCACAGCAAUAUUACGGAAC', 'high-valued'),
  ('GACCAGCAAUAUUACGUCAU', 'high-valued'),
  ('CUACAGCAAUAUUACGCCAG', 'high-valued'),
  ('AGUAAGCAAUAUUACGUAAA', 'low-valued'),
  ('CCUGAGCAAUAUUACGUGAC', 'low-valued'),
  ('GGCGAGCAAUAUUACGGGGU', 'low-valued'),
  ('CAGAAGCAAUAUUACGGACC', 'low-valued'),
  ('AGCCAGCAAUAUUACGAGGA', 'low-valued'),
  ('CCAAAGCAAUAUUACGAGGG', 'low-valued'),
  ('ACGGAGCAAUAUUACGGAGU', 'mid-valued'),
  ('GGGGAGCAAUAUUACGUCCG', 'high-valued'),
  ('UUAAAGCAAUAUUACGGGCU', 'mid-valued'),
  ('GCACAGCAAUAUUACGCACC', 'high-valued'),
  ('CAACAGCAAUAUUACGGACU', 'mid-valued'),
  ('UGCGAGCAAUAUUACGCUAA', 'high-valued'),
  ('UCAAAGCAAUAUUACGCGUG', 'high-valued'),
  ('UGUUAGCAAUAUUACGUCUU', 'mid-valued'),
  ('AAAGAGCAAUAUUACGCGCA', 'mid-valued');

* * *

Test: self-splicing fitness, log relative to wild type (ln ratio); higher = more splicing; Tetrahymena group I intron in knt gene, E. coli kanamycin selection, DiMSum; sequences stand for … in CUCUCU…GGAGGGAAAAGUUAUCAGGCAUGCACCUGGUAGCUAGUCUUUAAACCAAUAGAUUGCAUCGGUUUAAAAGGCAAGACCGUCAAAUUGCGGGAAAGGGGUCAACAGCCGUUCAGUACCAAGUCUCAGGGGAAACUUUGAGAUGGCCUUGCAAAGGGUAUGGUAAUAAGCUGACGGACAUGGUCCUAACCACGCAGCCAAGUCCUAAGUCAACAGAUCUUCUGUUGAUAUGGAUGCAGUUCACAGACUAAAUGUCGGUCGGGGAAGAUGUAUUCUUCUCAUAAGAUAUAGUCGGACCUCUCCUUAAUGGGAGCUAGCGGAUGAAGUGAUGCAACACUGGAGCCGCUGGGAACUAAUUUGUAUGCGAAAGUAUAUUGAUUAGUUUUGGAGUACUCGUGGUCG
Details: 30 °C
Known self-splicing fitness (ln) of a selection of sequences
testReadout: self-splicing fitness (ln)

INSERT INTO measurements (polymersequence, val) VALUES
  ('GUGUAGCAAUAUUACGCAAU', -2.06),
  ('GAUAAGCAAUAUUACGUAGA', -3.26),
  ('CAGUAGCAAUAUUACGGUAC', -5),
  ('GUCUAGCAAUAUUACGAUCC', -0.754),
  ('CCGCAGCAAUAUUACGACGU', -3.96),
  ('AUGUAGCAAUAUUACGUGUC', -3.79),
  ('UAAGAGCAAUAUUACGUGCC', -3.13),
  ('GUUAAGCAAUAUUACGCCUU', -0.286);

* * *

Known self-splicing fitness (ln) of a selection of sequences
Test: self-splicing fitness, log relative to wild type (ln ratio); higher = more splicing; Tetrahymena group I intron in knt gene, E. coli kanamycin selection, DiMSum; sequences stand for … in CUCUCU…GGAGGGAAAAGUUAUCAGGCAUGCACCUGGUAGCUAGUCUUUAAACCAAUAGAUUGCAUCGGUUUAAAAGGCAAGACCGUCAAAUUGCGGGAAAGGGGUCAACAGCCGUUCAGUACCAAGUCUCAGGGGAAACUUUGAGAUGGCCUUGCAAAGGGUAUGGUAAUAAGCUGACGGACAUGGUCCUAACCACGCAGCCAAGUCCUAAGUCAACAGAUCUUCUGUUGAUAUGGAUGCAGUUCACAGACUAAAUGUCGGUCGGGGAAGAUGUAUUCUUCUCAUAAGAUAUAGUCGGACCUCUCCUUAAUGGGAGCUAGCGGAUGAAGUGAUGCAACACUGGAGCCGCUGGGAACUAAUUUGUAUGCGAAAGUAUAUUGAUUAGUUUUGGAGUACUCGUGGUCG
Conditions: 30 °C
testReadout: self-splicing fitness (ln)

INSERT INTO assay_data (polymersequence, val) VALUES
  ('UACAAGCAAUAUUACGGCUU', -3.99),
  ('UCCAAGCAAUAUUACGUGUG', -2.08),
  ('AAACAGCAAUAUUACGGUAG', -2.8),
  ('CUCCAGCAAUAUUACGGUGU', -4.11),
  ('CCGAAGCAAUAUUACGCAGC', -3.49),
  ('AGAUAGCAAUAUUACGGUAC', -3.91),
  ('AGCCAGCAAUAUUACGCUCG', -1.78),
  ('AUACAGCAAUAUUACGAACU', -0.142);
